- Procedure Details: NCI Yeast Anticancer Drug Screen. Data for the mgt1 strain (AID 153)
- Assay Context: S. cerevisiae mgt1 mutant growth inhibition; at 11.0 µM; stronger effect = higher value
Compounds without any hit were thinned out: in the full panel of roughly 79,000, 15% have a hit.

[
  {
    "Compound": "CCCNCC(=O)O[C@]1(CC)C(=O)OCc2c1cc1n(c2=O)Cc2cc3ccccc3nc2-1",
    "growth inhibition / %": 34
  },
  {
    "Compound": "Cc1cccc2c(Cl)c3cccc(C)c3nc12",
    "growth inhibition / %": -7
  },
  {
    "Compound": "CN(C)N=Nc1ccc(N(C)C)cc1",
    "growth inhibition / %": -1
  },
  {
    "Compound": "CCOP(=O)(OCC)/C(C#N)=C\\c1cccc2ccccc12",
    "growth inhibition / %": -21
  },
  {
    "Compound": "COC(=O)C1CCCCC1C(=O)Nc1ccccc1 (configuration not stated)",
    "growth inhibition / %": 1
  },
  {
    "Compound": "O=C(NOC(=O)c1ccc([N+](=O)[O-])cc1)c1ccc(Cl)cc1",
    "growth inhibition / %": 1
  },
  {
    "Compound": "COc1ccc(N=c2cc(-c3ccccc3)oc3ccccc23)cc1",
    "growth inhibition / %": -2
  },
  {
    "Compound": "CC(C)Cc1ncc(CCCN=C(N)N)[nH]c1=O",
    "growth inhibition / %": -3
  },
  {
    "Compound": "Cc1oc2ccccc2c(=O)c1Cn1nnc2ccccc21",
    "growth inhibition / %": 0
  },
  {
    "Compound": "O=C(Cc1ccccc1)NN1C(=O)C(Cl)C1c1cc(Br)cc(Br)c1O (configuration not stated)",
    "growth inhibition / %": 94
  },
  {
    "Compound": "COc1ccc(-c2cc(-c3cc(C)cc(Cl)c3O)nc3[nH]c(=S)[nH]c(=S)c23)cc1",
    "growth inhibition / %": -3
  },
  {
    "Compound": "CCCCOc1ccc2nc(C)cc(N=[N+]=[N-])c2c1",
    "growth inhibition / %": 12
  },
  {
    "Compound": "CN(C)CCCn1c2c3ccccc3ccc2c2oc(=O)c3ccccc3c21",
    "growth inhibition / %": 53
  },
  {
    "Compound": "CSc1nc(-c2ccccc2)nc(=[N+]2CCOCC2)s1",
    "growth inhibition / %": 31
  },
  {
    "Compound": "Nc1ccc2c(c1)C(=O)c1c(F)cccc1-2",
    "growth inhibition / %": 1
  },
  {
    "Compound": "C/C(=N\\OCC(O)CNCCSCc1ccccc1)c1ccccc1Cl (configuration not stated)",
    "growth inhibition / %": 34
  },
  {
    "Compound": "C[n+]1c(-c2ccc(/C=N/NC(=O)c3ccc(C(=O)N/N=C/c4ccc(-c5cn6ccccc6[n+]5C)cc4)cc3)cc2)cn2ccccc21",
    "growth inhibition / %": 42
  },
  {
    "Compound": "O=[N+]([O-])c1ccc(/C=C\\c2ccc3c(c2)OCO3)c([N+](=O)[O-])c1",
    "growth inhibition / %": 5
  },
  {
    "Compound": "O=P(C(=S)Nc1c(Cl)cccc1Cl)(c1ccccc1)c1ccccc1",
    "growth inhibition / %": -11
  },
  {
    "Compound": "CCCCCCNCCCNc1c2cc(OC)ccc2nc2cccc([N+](=O)[O-])c12",
    "growth inhibition / %": 10
  },
  {
    "Compound": "COC(=O)C(Cl)(Cl)N=Nc1c(Cl)cc(Cl)c(C)c1Cl",
    "growth inhibition / %": 96
  },
  {
    "Compound": "C=COC(=O)N[C@H]1CCc2cc(OC)c(OC)c(OC)c2-c2ccc(SC)c(=O)cc21",
    "growth inhibition / %": -4
  },
  {
    "Compound": "COc1ccc2nc3cccc([N+](=O)[O-])c3c(NCCNCCO)c2c1",
    "growth inhibition / %": 23
  },
  {
    "Compound": "Cc1cc2nc3ccccc3n2c2ccccc12",
    "growth inhibition / %": 6
  },
  {
    "Compound": "O=[N+]([O-])c1cc[n+]([O-])c(Cl)c1",
    "growth inhibition / %": 24
  },
  {
    "Compound": "Nc1cc2ccccc2cc1N",
    "growth inhibition / %": -33
  },
  {
    "Compound": "CO[C@@]1([C@@H](Cl)c2ccccc2)C(=O)N(C)/C(=C\\c2ccccc2)C(=O)N1C",
    "growth inhibition / %": -1
  }
]

// data source = PubChem BioAssay (NCI)
